- System: Escherichia coli
- Procedure text: Broth two-fold serial dilution MIC test
- Format: cell-based, Escherichia coli (ATCC 11229)
- Measurement context: Table 2; Ecol; M9G media
Quantity kind: log10 MIC (log10 of the value in ppm)

[[record]]
molecule = "CCCCCCCCCCCC[N+]1(CC#CI)CCCC1 [Compound 37]"
quantitative_result = 0.30

[[record]]
molecule = "CCCCCCCCCCCCCCCC[N+]1(CC#CI)CC(C)OC(C)C1 (stereo not shown) [Compound 46]"
quantitative_result = 0.90

[[record]]
molecule = "CCCCCCCCCCCCCCCC[N+]1(CC#CI)CCOCC1 [Compound 50]"
quantitative_result = 0.00

[[record]]
molecule = "CCCCCCCCCCCCCC[N+]1(CC#CI)CCCCC1 [Compound 62]"
quantitative_result = 0.30

[[record]]
molecule = "CCCCCCOC(=O)CCCCC[N+]1(CC#CI)CCOCC1 [Compound 83]"
quantitative_result = 1.20

[[record]]
molecule = "CCCCCCCCCCCCCCCC[N+]1(CC#CI)CCCCC1 [Compound 26]"
quantitative_result = 0.60

[[record]]
molecule = "CCCCCCCCCCCCCCCC[N+]1(CC#CI)CCCC1 [Compound 32]"
quantitative_result = 0.60


Source listed as patent US5354862A.
